Biological target: human Kv1.3 (Homo sapiens (Human), UniProt P22001)
Sequence (P22001 whole entry): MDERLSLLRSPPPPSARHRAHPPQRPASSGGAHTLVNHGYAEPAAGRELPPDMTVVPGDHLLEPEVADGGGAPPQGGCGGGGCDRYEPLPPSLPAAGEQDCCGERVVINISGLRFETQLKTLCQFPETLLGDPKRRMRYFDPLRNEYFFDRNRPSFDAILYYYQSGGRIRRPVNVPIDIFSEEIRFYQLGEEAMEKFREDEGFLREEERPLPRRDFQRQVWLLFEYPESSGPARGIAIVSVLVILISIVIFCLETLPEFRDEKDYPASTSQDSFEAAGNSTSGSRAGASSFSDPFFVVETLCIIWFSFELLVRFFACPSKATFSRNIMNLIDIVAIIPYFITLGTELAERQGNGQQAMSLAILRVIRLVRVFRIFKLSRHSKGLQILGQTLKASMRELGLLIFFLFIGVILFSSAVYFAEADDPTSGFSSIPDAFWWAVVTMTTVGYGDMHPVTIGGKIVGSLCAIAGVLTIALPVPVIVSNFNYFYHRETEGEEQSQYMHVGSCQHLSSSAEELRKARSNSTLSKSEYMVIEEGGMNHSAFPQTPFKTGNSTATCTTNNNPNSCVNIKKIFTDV
Assay: Kv1.3 potency evaluation, automated patch clamp electrophysiology (QPatch HT) in CHO-Kv1.3 cells
Conditions: whole-cell QPatch HT, % inhibition of charge, step to +30 mV, four concentrations, N≥3 cells, read-out: hKv1.3 IC50
pIC50: −log10 of the molar value.
reported-metric: pIC50

// solved cases for pIC50 follow
>>> experimental_value("CC1(C)N=C(C23CC(N(Cc4ccc(C(F)(F)F)cc4)S(=O)(=O)c4ccc(F)cc4)(C2)C3)N[C@@H]1C(=O)NCCC(F)(F)F (mixture of isomers) [Example 251]")
6.51
>>> experimental_value("CC1(C)N=C(C23CC(N(Cc4ccc(Cl)c(F)c4)S(=O)(=O)c4ccccc4)(C2)C3)N[C@H]1C(=O)N1CCCC12CCC2 (mixture of isomers) [Example 71]")
7.24
>>> experimental_value("CC1(C)N=C(C23CC(N(Cc4ccc(Cl)c(F)c4)S(=O)(=O)c4ccccc4)(C2)C3)N[C@H]1C(=O)N1CCC(F)CC1 (mixture of isomers) [Example 124]")
7.12
>>> experimental_value("C[C@]1(C(=O)NCC(F)(F)F)CN=C(C23CC(N(Cc4ccc(C(F)(F)F)cc4)S(=O)(=O)c4ccc(F)cc4)(C2)C3)N1 (mixture of isomers) [Example 260]")
6.43
>>> experimental_value("CC1(C)N=C(C23CC(N(Cc4ccc(Cl)c(F)c4)S(=O)(=O)c4ccccc4)(C2)C3)N[C@@H]1C(=O)NCCC(F)(F)F (mixture of isomers) [Example 146]")
7.06

I: CC1(C)N=C(C23CC(N(Cc4ccc(Cl)c(Cl)c4)S(=O)(=O)CCC(F)F)(C2)C3)N[C@H]1C(=O)NCCC(F)(F)F (mixture of isomers) [Example 165]
II: CC1(C)N=C(C23CC(N(Cc4ccc(Cl)c(F)c4)S(=O)(=O)c4ccccc4)(C2)C3)N[C@H]1C(=O)N1CCC2(CC2)C1 (mixture of isomers) [Example 57]
III: NC(=O)C1(Cc2ccccc2)CN=C(C23CC(N(Cc4ccc(C(F)(F)F)cc4)S(=O)(=O)c4ccc(F)cc4)(C2)C3)N1 (centres unmarked) [Example 263]
Task: Sort (3 molecules) by pIC50: min first. Answer by writing out the labels in the requested order.
Result: III, I, II
(III: 6.40, I: 7.00, II: 7.30)

----------
Target: human Kv1.3 (Homo sapiens (Human))
Assay: Kv1.3 potency evaluation, automated patch clamp electrophysiology (QPatch HT) in CHO-Kv1.3 cells
Conditions: whole-cell QPatch HT, % inhibition of charge, step to +30 mV, four concentrations, N≥3 cells, read-out: hKv1.3 IC50
reported-metric: IC50 (nM)

P: C[C@]1(C(=O)NC2CCCCC2)CN=C(C23CC(N(Cc4ccc(C(F)(F)F)cc4)S(=O)(=O)c4ccc(F)cc4)(C2)C3)N1 (mixture of isomers)
Q: CC1(C)N=C(C23CC(N(Cc4ccc(C(F)F)cc4)S(=O)(=O)c4ccccc4)(C2)C3)N[C@H]1C(=O)NCCC(F)(F)F (mixture of isomers)
Task: Of P and Q , whose reported IC50 is the larger number? Write down the label of the entry you select.
Result: P

----------
Biological target: UniProt:P22001
Test: Kv1.3 potency evaluation, automated patch clamp electrophysiology (QPatch HT) in CHO-Kv1.3 cells
Conditions: whole-cell QPatch HT, % inhibition of charge, step to +30 mV, four concentrations, N≥3 cells, read-out: hKv1.3 IC50
pIC50: −log10 of the molar value.
reported-metric: pIC50

>>> experimental_value("CC1(C)N=C(C23CC(N(Cc4cc(F)c(Cl)c(F)c4)S(=O)(=O)c4ccccc4)(C2)C3)N[C@H]1C(=O)NCCC(F)(F)F (mixture of isomers)")
7.04
>>> experimental_value("C[C@]1(C(=O)NC2CCC2)CN=C(C23CC(N(Cc4ccc(C(F)(F)F)cc4)S(=O)(=O)c4ccc(F)cc4)(C2)C3)N1 (mixture of isomers)")
6.89
>>> experimental_value("CCCS(=O)(=O)N(Cc1ccc(Cl)c(Cl)c1)C12CC(C3=NC(C)(C)[C@H](C(=O)N4CCC(F)(F)CC4)N3)(C1)C2 (mixture of isomers)")
7.19
>>> experimental_value("CC1(C)N=C(C23CC(N(Cc4ccc(Cl)c(F)c4)S(=O)(=O)c4ccccc4)(C2)C3)N[C@H]1C(=O)N1CCC(F)(F)C(C)(C)C1 (mixture of isomers)")
6.89
>>> experimental_value("CC(C)NC(=O)[C@]1(C)CN=C(C23CC(N(Cc4ccc(C(F)(F)F)cc4)S(=O)(=O)c4ccc(F)cc4)(C2)C3)N1 (mixture of isomers)")
6.90

1: CC1(C)N=C(C23CC(N(Cc4ccc(C(F)(F)F)cc4)S(=O)(=O)c4ccccc4)(C2)C3)N[C@H]1C(=O)NCCC(F)(F)F (mixture of isomers)
2: C[C@]1(C(=O)NCC2CCCCC2)CN=C(C23CC(N(Cc4ccc(C(F)(F)F)cc4)S(=O)(=O)c4ccc(F)cc4)(C2)C3)N1 (mixture of isomers)
3: CC(C)(F)CNC(=O)[C@@H]1NC(C23CC(N(Cc4ccc(Cl)c(Cl)c4)S(=O)(=O)c4ccccc4)(C2)C3)=NC1(C)C (mixture of isomers)
Task: Sort (3 compounds) by pIC50: min first. Answer by writing out the labels in the requested order.
Result: 2, 1, 3
(2: 5.97, 1: 7.08, 3: 7.40)
